- Protocol Text: BSK_3C_Vis: BioMAP Diversity Plus: 3C Assay for Morphology Visualization (AID 2283025);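 note: fitted both ways so gain or loss versus DMSO counts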
- Details: primary human endothelial cells (HUVEC)
The source made the active and inactive calls. Rule for the calls: active = hit-call score of the fitted dose curve at least 0.9, where 1 is the maximum; inactive = score below 0.9.
Give one outcome, nothing more. List: True for active, False for inactive

Molecule	Class Label
Sc1ccccc1	False
Nn1cnnc1	False
CC(C)C(=O)OCC(C)(C)C(OC(=O)C(C)C)C(C)C (centres undefined)	False

Record request — test call for CCCCCCOC(=O)c1ccccc1C(=O)OCCCCCC False

Record request — test call for ClC1=C(Cl)[C@]2(Cl)[C@@H]3[C@@H]4C[C@@H]([C@H]5O[C@@H]45)[C@@H]3[C@@]1(Cl)C2(Cl)Cl True

Record request — test call for COc1ccc(O)c(C(C)(C)C)c1 False

Record request — test call for CC(C)(c1ccccc1)c1ccc(O)cc1 True

###

- Read-out: Lipase C (LIPC), LIPC (gene 3990)
- Protocol Text: LTEA_HepaRG_LIPC: Life Technologies and Expression Analysis (LTEA) Assay for Lipase C (LIPC) using HepaRG (AID 2283514)
- Details: mRNA level, 48 h; actives raise or lower the signal
The source made the active and inactive calls. How the source made its calls: active means hit-call score of the fitted dose curve at least 0.9, where 1 is the maximum; inactive means score below 0.9.
Assay Endpoint: AC50

Molecule	Result
ClC1=C(Cl)[C@]2(Cl)[C@@H]3[C@H]4C[C@H]([C@@H]5O[C@H]45)[C@@H]3[C@@]1(Cl)C2(Cl)Cl	50 µM (active)
Cc1ccccc1[N+](=O)[O-]	inactive
CCC(C)c1cc([N+](=O)[O-])cc([N+](=O)[O-])c1O (stereo not drawn)	1.83 µM (active)
CCCN(CCC)N=O	inactive
c1cc2ccc3cccc4ccc(c1)c2c34	inactive
Cc1cc(O)ccc1Cl	inactive

Now for a further molecule.
Form field AC50, entry Cc1ccccc1O : inactive

###

- Read-out: Thyroid Hormone Responsive (THRSP), THRSP (gene 7069)
- Protocol Text: LTEA_HepaRG_THRSP: Life Technologies and Expression Analysis (LTEA) Assay for Thyroid Hormone Responsive (THRSP) using HepaRG (AID 2283536)
- Details: mRNA level, 48 h; actives raise or lower the signal
The source made the active and inactive calls. The calls were made as follows: active = hit-call score of the fitted dose curve at least 0.9, where 1 is the maximum; inactive = score below 0.9.
Assay Endpoint: AC50

Use the examples below as a reference point.
Molecule	AC50
CCSC(=O)N(CC)C1CCCCC1	inactive
CC1=C2C[C@H]3[C@@H](CC=C4C[C@@H](O)CC[C@@]43C)[C@@H]2CC[C@]12O[C@@H]1C[C@H](C)CN[C@H]1[C@H]2C	inactive
C=CC(N)=O	inactive
Cc1ccccc1O	inactive
CN(C)CCO	inactive
Clc1ccc(Cl)cc1	inactive

Form field AC50, entry CCCCCCCCCC[N+](C)(C)CCCCCCCCCC : 24.5 µM (active)

Form field AC50, entry CCCCCCCCOC(=O)c1ccccc1C(=O)OCCCCCCCC : inactive

###

- System: rat Monoamine Oxidase, MAO-A, Central (MAOAC), gene 29253
- Protocol Text: NVS_ENZ_rMAOAC: NovaScreen (NVS) Enzymatic Assay for rat Monoamine Oxidase, MAO-A, Central (MAOAC) (AID 2283243);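 note: potency refers to inhibition seen as signal drop below DMSO baseline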
The source made the active and inactive calls. How the source made its calls: active means hit-call score of the fitted dose curve at least 0.9, where 1 is the maximum; inconclusive means response in the unintended direction; inactive means score below 0.9.
Give one outcome, nothing more. List: Yes for active, No for inactive

Would you please look over these solved cases?
Chemical Smiles	Class Label
Nc1ccc(-c2ccc(N)cc2)cc1	Yes
Cc1cc(O)ccc1Cl	Yes
Oc1c(Cl)c(Cl)c(Cl)c(Cl)c1Cl	Yes

Attention now turns to another entry.
Record request — test call for Oc1ccc(Cl)cc1Cl No

###

- Target System: Estrogen receptor beta (Homo sapiens) (UniProt Q92731)
- Sequence (Q92731 whole entry, looked up, the tested form may be a part): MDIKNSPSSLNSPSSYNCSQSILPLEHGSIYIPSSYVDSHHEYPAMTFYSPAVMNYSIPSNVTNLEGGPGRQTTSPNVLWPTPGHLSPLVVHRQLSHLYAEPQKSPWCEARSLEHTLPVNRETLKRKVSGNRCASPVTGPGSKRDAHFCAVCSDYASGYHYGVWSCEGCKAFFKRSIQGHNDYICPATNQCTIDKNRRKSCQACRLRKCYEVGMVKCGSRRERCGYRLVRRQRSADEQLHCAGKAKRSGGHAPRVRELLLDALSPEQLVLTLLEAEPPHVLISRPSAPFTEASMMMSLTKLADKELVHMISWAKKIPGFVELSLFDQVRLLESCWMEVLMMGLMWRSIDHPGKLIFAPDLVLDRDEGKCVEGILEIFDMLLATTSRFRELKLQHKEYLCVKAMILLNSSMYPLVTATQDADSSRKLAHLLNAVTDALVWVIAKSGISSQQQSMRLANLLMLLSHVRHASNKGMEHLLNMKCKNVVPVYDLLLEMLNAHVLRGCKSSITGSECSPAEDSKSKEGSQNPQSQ
- Protocol Text: OT_ER_ERbERb_1440: Odyssey Thera (OT) 24-hour HEK293T Protein-Complementation Assay for Estrogen Receptor-beta/-beta Homodimer (AID 2283380);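 note: fluorescence gain from ER beta LBD homodimer complementation read by laser scanning cytometry; scored as signal increase over DMSO baseline for both agonists and antagonists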
Calls of active or inactive are those of the source. The calls were made as follows: active = hit-call score of the fitted dose curve at least 0.9, where 1 is the maximum; inconclusive = response in the unintended direction; inactive = score below 0.9.
Give one outcome, nothing more. List: y = active, n = inactive

Would you please look over these solved cases?
Compound	Class Label
O=S(=O)(O)C(F)(F)C(F)(F)C(F)(F)C(F)(F)F	n
O=C(O)C(F)(F)C(F)(F)C(F)(F)C(F)(F)C(F)(F)F	n
c1ccc(-c2ccccc2)cc1	n

Record request — test call for CN(C)CCO n

Record request — test call for NS(=O)(=O)C(F)(F)C(F)(F)C(F)(F)C(F)(F)C(F)(F)C(F)(F)C(F)(F)C(F)(F)F n

Record request — test call for C1CC2OC2CC1C1CO1 (stereo not given) n

Record request — test call for Cc1cccc(C)c1N n

Record request — test call for OCC(O)CO n

Record request — test call for CCNc1nc(NC(C)C)nc(SC)n1 n

Record request — test call for Cc1ccc(O)c(C)c1 n

Record request — test call for Nn1cnnc1 n

Record request — test call for Cc1ccccc1[N+](=O)[O-] n

Record request — test call for Cc1ccccc1O n

Record request — test call for O=C(NC(=O)c1c(F)cccc1F)Nc1cc(Cl)c(OC(F)(F)C(F)F)c(Cl)c1 n

Record request — test call for C=CC(=O)NCNC(=O)C=C n

Record request — test call for O=C(O)C(F)(F)C(F)(F)C(F)(F)C(F)(F)C(F)(F)C(F)(F)C(F)(F)C(F)(F)F n

Record request — test call for O=C(N[C@H]1CN2CCC1CC2)c1cc2ccoc2cn1 n

Record request — test call for Cc1cc(O)ccc1Cl y

Record request — test call for Cc1cc2c3c(c1)C(c1ccccc1)=N[C@@H](NC(=O)c1ccncc1)C(=O)N3CC2 n

###

- Protocol Text: ATG_SREBP_CIS: Attagene CIS-FACTORIAL HepG2 Assay for human Sterol Regulatory Element Binding (SREBP) (AID 2282962)
- Details: HepG2 Attagene cis-factorial SREBP reporter, mRNA; actives raise or lower the signal
Calls of active or inactive are those of the source. Rule for the calls: active = hit-call score of the fitted dose curve at least 0.9, where 1 is the maximum; inactive = score below 0.9.
Assay Endpoint: AC50

Molecule	AC50
CC#Cc1cc(C)nc(Nc2ccccc2)n1	inactive
CCOCCOC(C)=O	inactive
Clc1ccc(C(Cl)(Cl)Cl)cc1	inactive
CN(C)CCO	inactive
CCC(C)(CC)c1cc(NC(=O)c2c(OC)cccc2OC)on1	10.8 µM (active)
CCCCCCCCCc1ccc(O)cc1	inactive
O=C(N[C@H]1CN2CCC1CC2)c1cc2ccoc2cn1	inactive
Cc1ccccc1CO[C@@H]1C[C@@]2(C(C)C)CC[C@]1(C)O2	14.7 µM (active)
CCCCCCCCCC[N+](C)(C)CCCCCCCCCC	3.63 µM (active)
O=NN(c1ccccc1)c1ccccc1	inactive

Form field AC50, entry C1CC2OC2CC1C1CO1 (stereo not drawn) : inactive

Form field AC50, entry CCCCCCOC(=O)c1ccccc1C(=O)OCCCCCC : inactive

Form field AC50, entry CC1=C2C[C@H]3[C@@H](CC=C4C[C@@H](O)CC[C@@]43C)[C@@H]2CC[C@]12O[C@@H]1C[C@H](C)CN[C@H]1[C@H]2C : inactive

###

- Protocol Text: Tanguay_ZF_120hpf_TR_legacy: (Legacy) Oregon State University Tanguay Lab 120 Hour Post-fertilization zebrafish Assay for Touch Response (AID 2283667)
Inconclusive results are not listed. The source made the active and inactive calls. How the source made its calls: active means hit-call score of the fitted dose curve at least 0.9, where 1 is the maximum; inconclusive means response in the unintended direction; inactive means score below 0.9.
Give one outcome, nothing more. List: active, inactive

Would you please look over these solved cases?
Compound	Class Label
Nc1ccc(-c2ccc(N)cc2)cc1	inactive
CC(C)C(=O)OCC(C)(C)C(OC(=O)C(C)C)C(C)C (stereo not given)	inactive
CC(C)(O)C(=O)Nc1ccc([N+](=O)[O-])c(C(F)(F)F)c1	inactive
Cc1ccccc1CO[C@@H]1C[C@@]2(C(C)C)CC[C@]1(C)O2	inactive
ClC1=C(Cl)[C@]2(Cl)[C@@H]3[C@H]4C[C@H]([C@@H]5O[C@H]45)[C@@H]3[C@@]1(Cl)C2(Cl)Cl	active
ClC1=C(Cl)[C@]2(Cl)[C@@H]3[C@@H]4C[C@@H]([C@H]5O[C@@H]45)[C@@H]3[C@@]1(Cl)C2(Cl)Cl	inactive
Cc1ccccc1[N+](=O)[O-]	inactive
CCC(C)c1cc([N+](=O)[O-])cc([N+](=O)[O-])c1O (stereo not given)	inactive
Cc1cc(O)ccc1Cl	inactive
CCC(C)(CC)c1cc(NC(=O)c2c(OC)cccc2OC)on1	inactive

Record request — test call for O=C(NC(=O)c1cc(F)c(F)cc1Cl)Nc1cc(F)ccc1N1CCC(C(=O)O)CC1 inactive

Record request — test call for Cc1cccc([N+](=O)[O-])c1 inactive

Record request — test call for O=NN(c1ccccc1)c1ccccc1 inactive

###

- Target System: human Retinoic Acid Receptor beta (RARb), RARB (gene 5915) (UniProt P10826)
- Sequence (P10826 whole entry, looked up): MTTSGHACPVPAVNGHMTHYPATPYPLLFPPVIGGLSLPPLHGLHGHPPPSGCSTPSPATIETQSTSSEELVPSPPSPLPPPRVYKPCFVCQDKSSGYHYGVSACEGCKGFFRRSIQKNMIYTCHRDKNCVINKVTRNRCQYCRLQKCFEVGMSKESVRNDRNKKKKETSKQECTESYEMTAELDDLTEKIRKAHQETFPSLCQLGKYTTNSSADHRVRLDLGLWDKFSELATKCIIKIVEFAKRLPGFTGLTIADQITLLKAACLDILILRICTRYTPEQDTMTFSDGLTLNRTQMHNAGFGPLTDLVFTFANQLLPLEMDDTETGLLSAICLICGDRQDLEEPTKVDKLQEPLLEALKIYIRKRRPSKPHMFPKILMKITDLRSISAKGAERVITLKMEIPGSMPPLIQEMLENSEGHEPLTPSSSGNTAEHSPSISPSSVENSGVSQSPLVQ
- Protocol Text: ATG_RARb_TRANS: Attagene TRANS-FACTORIAL HepG2 Assay for human Retinoic Acid Receptor beta (AID 2283004)
Results filed as inconclusive are left out. Activity calls are given as the source filed them. The calls were made as follows: active = hit-call score of the fitted dose curve at least 0.9, where 1 is the maximum; inconclusive = response in the unintended direction; inactive = score below 0.9.
Assay Endpoint: outcome

Chemical Smiles	Result
Cc1cc(-c2ccc(N)c(C)c2)ccc1N	inactive
CCCCCCCCCc1ccc(O)cc1	inactive
Cc1cccc([N+](=O)[O-])c1	inactive
Clc1ccc(Cl)cc1	inactive
O=C(O)C(F)(F)C(F)(F)C(F)(F)C(F)(F)C(F)(F)C(F)(F)C(F)(F)C(F)(F)C(F)(F)F	inactive

Now for a further molecule.
The value of outcome recorded for C[C@]12CCC(=O)C=C1CC[C@@H]1[C@@H]2CC[C@]2(C)C(=O)CC[C@@H]12 when tested on human Retinoic Acid Receptor beta (RARb), RARB (gene 5915) (UniProt P10826) reads inactive
